B1: CPEB3 Ribozyme (parent)
chain: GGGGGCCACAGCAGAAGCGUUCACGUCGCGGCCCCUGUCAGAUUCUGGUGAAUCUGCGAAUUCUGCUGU

- Variants of: B1
- experimental protocol: self-cleavage, relative activity (ratio to wild type); higher = more cleavage; co-transcriptional
Hi, to clarify the labels: label 1 covers self-cleavage from 0.8 upward, label 0 covers anything below 0.8.

Example entries begin here.
Input line: Has C12U G48A a recorded self-cleavage greater than or equal to 0.8?
Output line: label 1

Input line: Has C6G G65C a recorded self-cleavage greater than or equal to 0.8?
Output line: label 0

Input line: Has G50U A60C a recorded self-cleavage greater than or equal to 0.8?
Output line: label 0

Input line: Has C6A A15G a recorded self-cleavage greater than or equal to 0.8?
Output line: label 0

Input line: Has G2U G41C a recorded self-cleavage greater than or equal to 0.8?
Output line: label 0

We now examine a further variant.
Input line: Has U55G C57A a recorded self-cleavage greater than or equal to 0.8?
Output line: label 0
